Measured values drawn from patent US10227324B2 for this set.

# system under test: PI3K-β kinase (p110β/p85α) (Homo sapiens)
# Construct: purchased Millipore 14-603
# Sequence (P42338 whole entry): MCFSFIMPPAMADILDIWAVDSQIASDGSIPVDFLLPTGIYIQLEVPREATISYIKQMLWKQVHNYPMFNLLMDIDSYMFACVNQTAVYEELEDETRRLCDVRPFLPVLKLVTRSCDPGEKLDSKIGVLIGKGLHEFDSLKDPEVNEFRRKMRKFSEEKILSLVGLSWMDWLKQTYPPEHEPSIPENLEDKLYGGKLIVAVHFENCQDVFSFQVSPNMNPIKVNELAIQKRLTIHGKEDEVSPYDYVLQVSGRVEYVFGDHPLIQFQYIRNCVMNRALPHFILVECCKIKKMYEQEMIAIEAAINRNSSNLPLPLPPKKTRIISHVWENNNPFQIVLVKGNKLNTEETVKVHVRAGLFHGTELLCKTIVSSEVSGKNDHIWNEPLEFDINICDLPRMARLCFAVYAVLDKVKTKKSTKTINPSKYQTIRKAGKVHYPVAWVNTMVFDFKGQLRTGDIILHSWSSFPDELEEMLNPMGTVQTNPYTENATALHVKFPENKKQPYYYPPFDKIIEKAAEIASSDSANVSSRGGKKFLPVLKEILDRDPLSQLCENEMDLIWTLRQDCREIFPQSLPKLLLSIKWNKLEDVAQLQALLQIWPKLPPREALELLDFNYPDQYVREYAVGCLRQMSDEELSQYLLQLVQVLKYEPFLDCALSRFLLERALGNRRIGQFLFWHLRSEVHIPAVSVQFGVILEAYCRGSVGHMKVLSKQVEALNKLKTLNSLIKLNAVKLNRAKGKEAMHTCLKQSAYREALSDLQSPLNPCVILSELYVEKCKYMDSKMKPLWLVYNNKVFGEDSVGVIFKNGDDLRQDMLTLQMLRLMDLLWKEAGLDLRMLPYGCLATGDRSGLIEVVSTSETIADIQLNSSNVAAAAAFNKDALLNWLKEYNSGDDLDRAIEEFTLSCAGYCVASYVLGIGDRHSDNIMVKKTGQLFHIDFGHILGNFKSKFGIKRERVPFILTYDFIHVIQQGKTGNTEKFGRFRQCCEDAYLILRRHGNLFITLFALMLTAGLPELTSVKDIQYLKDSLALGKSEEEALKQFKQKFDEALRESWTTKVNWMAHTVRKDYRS
# Sequence (P27986 whole entry partner): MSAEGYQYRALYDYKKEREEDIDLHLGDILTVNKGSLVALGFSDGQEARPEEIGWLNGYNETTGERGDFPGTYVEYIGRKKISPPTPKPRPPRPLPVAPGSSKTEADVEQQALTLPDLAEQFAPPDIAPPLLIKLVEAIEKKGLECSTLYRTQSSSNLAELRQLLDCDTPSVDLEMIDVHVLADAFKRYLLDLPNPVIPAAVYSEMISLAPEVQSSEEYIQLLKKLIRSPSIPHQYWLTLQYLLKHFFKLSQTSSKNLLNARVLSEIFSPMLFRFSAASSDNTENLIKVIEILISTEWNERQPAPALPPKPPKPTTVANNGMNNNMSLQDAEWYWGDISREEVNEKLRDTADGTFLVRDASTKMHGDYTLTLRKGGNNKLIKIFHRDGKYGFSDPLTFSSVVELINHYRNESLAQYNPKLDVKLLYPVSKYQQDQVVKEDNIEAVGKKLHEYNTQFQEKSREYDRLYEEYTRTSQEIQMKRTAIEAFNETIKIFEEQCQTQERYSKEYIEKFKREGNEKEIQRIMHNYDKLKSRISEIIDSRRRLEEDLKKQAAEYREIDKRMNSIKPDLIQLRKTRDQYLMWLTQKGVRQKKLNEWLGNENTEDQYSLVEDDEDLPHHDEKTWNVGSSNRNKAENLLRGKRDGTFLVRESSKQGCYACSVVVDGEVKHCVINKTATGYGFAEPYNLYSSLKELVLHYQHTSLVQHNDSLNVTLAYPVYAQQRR
# test method notes: Determination of PI3K kinase activity (ADP Transcreener, fluorescence polarization)
# Format: biochemical
# settings: Table 1; ATP 10 μM; read-out: PI3K-β/nM (IC50 of inhibitory activity against PI3K kinase)
// values below are reported IC50
# output: bare number, implied unit nM

Before answering, review these 6 worked examples.
molecule: C[C@H]1COCCN1c1nc(-c2cnc(N)cc2Cl)cc(C(C)(C)O)n1 [Compound S-73]
IC50, nM: 396
//
molecule: COC(C)(C)c1cc(-c2cnc(N)cc2Cl)nc(N2CCOCC2)n1 [Compound S-76]
IC50, nM: 316
//
molecule: C[C@@H]1COCCN1c1nc(-c2cnc(N)cc2Cl)cc(C2(S(C)(=O)=O)CC2)n1 [Compound S-68]
IC50, nM: 92
//
molecule: C[C@H]1COCCN1c1nc(-c2cnc(N)nc2C(F)(F)F)cc(C2(S(C)(=O)=O)CCC2)n1 [Compound S-30]
IC50, nM: 18
//
molecule: CC(C)(O)c1cc(-c2cnc(N)nc2C(F)(F)F)nc(N2CCOCC2)n1 [Compound S-64]
IC50, nM: 27
//
molecule: CS(=O)(=O)C1(c2cc(-c3cnc(N)cc3F)nc(N3CCOCC3)n2)CC1 [Compound S-82]
IC50, nM: 86

Now for another entry.
For record CCS(=O)(=O)C1(c2cc(-c3cnc(N)cc3C(F)(F)F)nc(N3CCOCC3)n2)CC1 [Compound S-28] the listed IC50 is 121

----------
# system under test: PI3K-δ kinase (p110δ/p85α) (Homo sapiens)
# Construct: purchased Millipore 14-604M
# Sequence (O00329 whole entry, one chain of several): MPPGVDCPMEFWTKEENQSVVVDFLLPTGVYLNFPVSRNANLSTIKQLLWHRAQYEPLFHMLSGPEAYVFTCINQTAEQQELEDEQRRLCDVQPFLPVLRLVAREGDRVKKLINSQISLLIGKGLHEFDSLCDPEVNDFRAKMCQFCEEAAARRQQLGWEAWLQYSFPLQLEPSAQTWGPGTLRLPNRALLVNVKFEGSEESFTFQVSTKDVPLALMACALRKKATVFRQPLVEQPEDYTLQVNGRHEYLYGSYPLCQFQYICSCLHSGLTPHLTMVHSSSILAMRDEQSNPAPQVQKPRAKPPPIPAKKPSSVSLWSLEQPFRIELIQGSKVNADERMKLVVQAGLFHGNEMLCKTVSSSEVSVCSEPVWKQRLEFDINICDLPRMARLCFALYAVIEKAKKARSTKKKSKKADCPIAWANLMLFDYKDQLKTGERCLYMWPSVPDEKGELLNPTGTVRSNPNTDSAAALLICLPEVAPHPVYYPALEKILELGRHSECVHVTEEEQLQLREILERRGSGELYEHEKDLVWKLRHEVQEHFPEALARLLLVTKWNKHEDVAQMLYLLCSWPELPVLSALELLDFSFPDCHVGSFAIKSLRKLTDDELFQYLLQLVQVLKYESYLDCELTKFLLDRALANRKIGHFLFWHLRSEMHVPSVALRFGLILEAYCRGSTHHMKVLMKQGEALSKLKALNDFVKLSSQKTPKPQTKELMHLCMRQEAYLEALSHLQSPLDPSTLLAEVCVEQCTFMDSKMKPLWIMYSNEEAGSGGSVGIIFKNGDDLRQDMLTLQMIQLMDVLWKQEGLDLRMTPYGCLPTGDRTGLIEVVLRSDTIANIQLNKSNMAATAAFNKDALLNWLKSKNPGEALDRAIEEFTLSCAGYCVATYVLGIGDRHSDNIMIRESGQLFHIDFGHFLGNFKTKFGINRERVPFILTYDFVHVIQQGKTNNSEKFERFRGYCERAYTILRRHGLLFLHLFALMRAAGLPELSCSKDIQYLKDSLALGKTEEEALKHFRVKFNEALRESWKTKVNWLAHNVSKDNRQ
# test method notes: Determination of PI3K kinase activity (ADP Transcreener, fluorescence polarization)
# Assay type: biochemical
# settings: Table 1; ATP 10 μM; read-out: PI3K-δ/nM (IC50 of inhibitory activity against PI3K kinase)
quantity measured: IC50 (nM)
Express the result in nM but write the number alone.

Here are 10 compounds together with their reported answers.
compound: Nc1cc(C(F)(F)F)c(-c2cc(C3(S(=O)(=O)c4ccccc4)CCC3)nc(N3CCOCC3)n2)cn1
IC50 (nM): 42
--
compound: Nc1cc(Cl)c(-c2cc(C3(S(=O)(=O)C4CC4)CC3)nc(N3CCOCC3)n2)cn1
IC50 (nM): 117
--
compound: CS(=O)(=O)NC1(c2cc(-c3cnc(N)cc3C(F)(F)F)nc(N3CCOCC3)n2)CC1
IC50 (nM): 85
--
compound: CC(C)(O)c1cc(-c2cnc(N)nc2C(F)(F)F)nc(N2CCOCC2)n1
IC50 (nM): 19
--
compound: Nc1cc(C(F)(F)F)c(-c2cc(C3(S(=O)(=O)c4ccc(F)cc4)CC3)nc(N3CCOCC3)n2)cn1
IC50 (nM): 235
--
compound: C[C@@H]1COCCN1c1nc(-c2cnc(N)cc2Cl)cc(C2(S(C)(=O)=O)CC2)n1
IC50 (nM): 143
--
compound: C[C@H]1COCCN1c1nc(-c2cnc(N)cc2C(F)(F)F)cc(C2(S(C)(=O)=O)CCC2)n1
IC50 (nM): 63
--
compound: CC(C)S(=O)(=O)C(C)(C)c1cc(-c2cnc(N)cc2C(F)(F)F)nc(N2CCOCC2)n1
IC50 (nM): 491
--
compound: Nc1cc(C(F)(F)F)c(-c2cc(C3(S(=O)(=O)c4ccccc4Cl)CC3)nc(N3CCOCC3)n2)cn1
IC50 (nM): 85
--
compound: Nc1cc(C(F)(F)F)c(-c2cc(C3(S(=O)(=O)c4ccccc4)CC3)nc(N3CCOCC3)n2)cn1
IC50 (nM): 67

Note: attention shifts to another entry.
`Nc1cc(C(F)(F)F)c(-c2cc(C3(S(=O)(=O)c4ccccc4F)CC3)nc(N3CCOCC3)n2)cn1` on PI3K-δ kinase (p110δ/p85α) (Homo sapiens) gives IC50 = 33

----------
# system under test: PI3K-γ kinase (p110γ) (Homo sapiens)
# Construct: purchased Invitrogen PV4786
# Sequence (P48736 whole entry): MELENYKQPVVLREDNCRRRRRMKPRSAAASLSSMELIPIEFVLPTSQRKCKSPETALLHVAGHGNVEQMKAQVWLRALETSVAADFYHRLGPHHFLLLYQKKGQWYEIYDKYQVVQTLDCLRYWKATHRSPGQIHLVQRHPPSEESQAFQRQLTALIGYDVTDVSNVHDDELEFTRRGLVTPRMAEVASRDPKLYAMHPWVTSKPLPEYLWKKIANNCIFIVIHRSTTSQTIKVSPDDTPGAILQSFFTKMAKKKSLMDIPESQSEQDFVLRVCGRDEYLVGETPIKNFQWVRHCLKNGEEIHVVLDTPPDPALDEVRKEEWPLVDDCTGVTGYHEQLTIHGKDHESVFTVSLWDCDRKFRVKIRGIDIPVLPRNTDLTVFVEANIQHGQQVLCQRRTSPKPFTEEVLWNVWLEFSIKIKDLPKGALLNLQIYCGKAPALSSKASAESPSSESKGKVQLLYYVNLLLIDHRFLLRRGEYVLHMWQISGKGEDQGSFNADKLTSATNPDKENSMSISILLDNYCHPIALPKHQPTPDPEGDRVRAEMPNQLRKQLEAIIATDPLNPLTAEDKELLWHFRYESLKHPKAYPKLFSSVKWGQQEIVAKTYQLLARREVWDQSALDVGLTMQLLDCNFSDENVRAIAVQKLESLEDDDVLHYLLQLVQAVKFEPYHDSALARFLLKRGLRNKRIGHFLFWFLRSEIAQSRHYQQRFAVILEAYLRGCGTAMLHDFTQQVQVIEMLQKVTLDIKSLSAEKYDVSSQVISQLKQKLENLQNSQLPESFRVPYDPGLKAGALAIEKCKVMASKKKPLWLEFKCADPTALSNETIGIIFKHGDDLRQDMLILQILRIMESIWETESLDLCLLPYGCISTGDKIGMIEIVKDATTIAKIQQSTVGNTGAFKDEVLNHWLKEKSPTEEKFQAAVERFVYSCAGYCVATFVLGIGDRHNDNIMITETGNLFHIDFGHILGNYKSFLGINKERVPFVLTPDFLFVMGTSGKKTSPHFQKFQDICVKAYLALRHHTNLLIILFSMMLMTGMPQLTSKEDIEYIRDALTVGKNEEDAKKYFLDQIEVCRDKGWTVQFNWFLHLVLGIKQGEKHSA
# test method notes: Determination of PI3K kinase activity (ADP Transcreener, fluorescence polarization)
# Format: biochemical
# settings: Table 1; ATP 10 μM; read-out: PI3K-γ/nM (IC50 of inhibitory activity against PI3K kinase)
Kindly apply the following: Y if IC50 is less than 300 nM, N in every other case.

For orientation, consider the following solved cases.
compound: CS(=O)(=O)C1(c2cc(-c3cnc(N)cc3C(F)(F)F)nc(N3CCOCC3)n2)CC1
label class: Y

compound: C[C@H]1COCCN1c1nc(-c2cnc(N)cc2C(F)(F)F)cc(C(C)(C)S(C)(=O)=O)n1
label class: N

compound: CS(=O)(=O)C1(c2cc(N3CCOCC3)nc(-c3cnc(N)cc3C(F)(F)F)n2)CC1 [reference compound]
label class: N

compound: C[C@H]1COCCN1c1nc(-c2cnc(N)cc2F)cc(C2(S(C)(=O)=O)CC2)n1
label class: Y

compound: Nc1cc(C(F)(F)F)c(-c2cc(C3(S(=O)(=O)c4ccc(F)cc4)CC3)nc(N3CCOCC3)n2)cn1
label class: N

compound: Nc1cc(C(F)(F)F)c(-c2cc(C3(S(=O)(=O)c4cccc(F)c4)CC3)nc(N3CCOCC3)n2)cn1
label class: Y

compound: CC(C)(c1cc(-c2cnc(N)cc2C(F)(F)F)nc(N2CCOCC2)n1)S(=O)(=O)c1ccccc1
label class: N

compound: C[C@H]1COCCN1c1nc(-c2cnc(N)cc2Cl)cc(C2(S(C)(=O)=O)CCC2)n1
label class: Y

Input line: Dear colleague, could you confirm whether IC50 of `CC(C)S(=O)(=O)C1(c2cc(-c3cnc(N)cc3C(F)(F)F)nc(N3CCOC[C@@H]3C)n2)CCC1` falls below 300 nM? Thanks.
Output line: N

Input line: hey, is IC50 for `CC(C)(O)c1cc(-c2cnc(N)nc2C(F)(F)F)nc(N2CCOCC2)n1` lower than 300 nM or not?
Output line: N

Input line: In the record for `Nc1cc(C(F)(F)F)c(-c2cc(C3(S(=O)(=O)c4ccccc4)CC3)nc(N3CCOCC3)n2)cn1` , is IC50 less than 300 nM?
Output line: N

Input line: In plain terms, does `C[C@H]1COCCN1c1nc(-c2cnc(N)cc2C(F)(F)F)cc(C2(S(C)(=O)=O)CC2)n1` come in under 300 nM for IC50?
Output line: Y

----------
# system under test: PI3K-β kinase (p110β/p85α) (Homo sapiens)
# Construct: purchased Millipore 14-603
# test method notes: Determination of PI3K kinase activity (ADP Transcreener, fluorescence polarization)
# Assay type: biochemical
# settings: Table 1; ATP 10 μM; read-out: PI3K-β/nM (IC50 of inhibitory activity against PI3K kinase)
quantity measured: log10 IC50 (log10 of the value in nM)
Values reflect log10 of reported IC50 (nM).

compound: Nc1cc(F)c(-c2cc(C3(S(=O)(=O)C4CC4)CC3)nc(N3CCOCC3)n2)cn1
system under test: PI3K-β kinase (p110β/p85α) (Homo sapiens)
log10 IC50: 2.72
--
compound: CS(=O)(=O)C(F)(F)c1cc(-c2cnc(N)cc2Cl)nc(N2CCOCC2)n1
system under test: PI3K-β kinase (p110β/p85α) (Homo sapiens)
log10 IC50: 1.96
--
compound: Nc1cc(C(F)(F)F)c(-c2cc(C3(S(=O)(=O)c4ccccc4Cl)CC3)nc(N3CCOCC3)n2)cn1
system under test: PI3K-β kinase (p110β/p85α) (Homo sapiens)
log10 IC50: 2.62
--
compound: CS(=O)(=O)C1(c2cc(N3CCOCC3)nc(-c3cnc(N)cc3C(F)(F)F)n2)CC1 [reference compound]
system under test: PI3K-β kinase (p110β/p85α) (Homo sapiens)
log10 IC50: 3.33
--
compound: C[C@H]1COCCN1c1nc(-c2cnc(N)cc2Cl)cc(C2(S(C)(=O)=O)CCC2)n1
system under test: PI3K-β kinase (p110β/p85α) (Homo sapiens)
log10 IC50: 2.23
--
compound: CS(=O)(=O)C1(c2cc(-c3cnc(N)nc3C(F)(F)F)nc(N3CCOCC3)n2)CC1
system under test: PI3K-β kinase (p110β/p85α) (Homo sapiens)
log10 IC50: 0.90
--
compound: CC(C)S(=O)(=O)C1(c2cc(-c3cnc(N)cc3C(F)(F)F)nc(N3CCOC[C@@H]3C)n2)CCC1
system under test: PI3K-β kinase (p110β/p85α) (Homo sapiens)
log10 IC50: 3.22
--
compound: COC(C)(C)c1cc(-c2cnc(N)cc2C(F)(F)F)nc(N2CCOCC2)n1
system under test: PI3K-β kinase (p110β/p85α) (Homo sapiens)
log10 IC50: 2.25

// recorded log10 IC50 for `Nc1cc(C(F)(F)F)c(-c2cc(C3(S(=O)(=O)c4ccccc4)CCC3)nc(N3CCOCC3)n2)cn1` : 2.83

`Nc1cc(C(F)(F)F)c(-c2cc(C3(S(=O)(=O)c4ccc(F)cc4)CC3)nc(N3CCOCC3)n2)cn1` has a reported log10 IC50 of 2.86

Documented log10 IC50 of `CC(C)(O)c1cc(-c2cnc(N)cc2Cl)nc(N2CCOCC2)n1` : 2.36

Reported log10 IC50 for `CC(C)(c1cc(-c2cnc(N)cc2C(F)(F)F)nc(N2CCOCC2)n1)S(=O)(=O)c1ccccc1` was 2.92

Form: compound = `CS(=O)(=O)NC1(c2cc(-c3cnc(N)cc3C(F)(F)F)nc(N3CCOCC3)n2)CC1` ; log10 IC50 = 2.58

log10 IC50 measured on `Nc1cc(C(F)(F)F)c(-c2cc(C3(S(=O)(=O)c4ccccc4F)CC3)nc(N3CCOCC3)n2)cn1` = 1.86

log10 IC50 reading for `C[C@H]1COCCN1c1nc(-c2ccc(N)nc2)cc(C2(S(C)(=O)=O)CCC2)n1` : 2.99

Value of log10 IC50 reported for the compound `C[C@@H]1COCCN1c1nc(-c2cnc(N)cc2Cl)cc(C(C)(C)S(C)(=O)=O)n1` is 2.32

Notebook: `CC(C)S(=O)(=O)C1(c2cc(-c3cnc(N)cc3C(F)(F)F)nc(N3CCOCC3)n2)CCC1` , log10 IC50 read as 2.71

The recorded log10 IC50 for entry `CC(C)(c1cc(-c2cnc(N)cc2C(F)(F)F)nc(N2CCOCC2)n1)S(=O)(=O)c1ccccc1F` equals 3.09

Entry `CC(C)(c1cc(-c2cnc(N)cc2C(F)(F)F)nc(N2CCOCC2)n1)S(C)(=O)=O` — recorded log10 IC50 = 2.29

The reported value for `C[C@H]1COCCN1c1nc(-c2cnc(N)cc2F)cc(C(C)(C)S(C)(=O)=O)n1` in terms of log10 IC50 is 2.91

log10 IC50 measured on `Nc1cc(C(F)(F)F)c(-c2cc(C3(S(=O)(=O)c4ccccc4)CC3)nc(N3CCOCC3)n2)cn1` = 2.34

Lab note: `CC(C)(c1cc(-c2cnc(N)cc2F)nc(N2CCOCC2)n1)S(C)(=O)=O` gave log10 IC50 of 2.91

Noted for `CS(=O)(=O)C1(c2cc(-c3cnc(N)cc3C(F)(F)F)nc(N3CCOCC3)n2)CCCC1` : its log10 IC50 reads 3.06

# log10 IC50 of `CC(C)(c1cc(-c2cnc(N)nc2C(F)(F)F)nc(N2CCOCC2)n1)S(C)(=O)=O` = 1.45

Input `CS(=O)(=O)C(F)(F)c1cc(-c2cnc(N)cc2C(F)(F)F)nc(N2CCOCC2)n1` . Output log10 IC50: 3.19

So, CS(=O)(=O)C(F)c1cc(-c2cnc(N)cc2C(F)(F)F)nc(N2CCOCC2)n1 (centres unmarked) ? Its log10 IC50 was 3.44

`COC(C)(C)c1cc(-c2cnc(N)cc2C(F)(F)F)nc(N2CCOC[C@H]2C)n1` yielded log10 IC50 of 3.32

Short answer for `CS(=O)(=O)C1(c2cc(-c3cnc(N)cc3Cl)nc(N3CCOCC3)n2)CC1` : log10 IC50 was 1.45

The compound `CCS(=O)(=O)C1(c2cc(-c3cnc(N)cc3F)nc(N3CCOCC3)n2)CC1` showed log10 IC50 equal to 2.68
